Origin of the recorded values: the supplement of paper PMC10065799

- SYSTEM_NAME: MERTK (UniProt Q12866)
- Sequence (Q12866 whole entry, looked up): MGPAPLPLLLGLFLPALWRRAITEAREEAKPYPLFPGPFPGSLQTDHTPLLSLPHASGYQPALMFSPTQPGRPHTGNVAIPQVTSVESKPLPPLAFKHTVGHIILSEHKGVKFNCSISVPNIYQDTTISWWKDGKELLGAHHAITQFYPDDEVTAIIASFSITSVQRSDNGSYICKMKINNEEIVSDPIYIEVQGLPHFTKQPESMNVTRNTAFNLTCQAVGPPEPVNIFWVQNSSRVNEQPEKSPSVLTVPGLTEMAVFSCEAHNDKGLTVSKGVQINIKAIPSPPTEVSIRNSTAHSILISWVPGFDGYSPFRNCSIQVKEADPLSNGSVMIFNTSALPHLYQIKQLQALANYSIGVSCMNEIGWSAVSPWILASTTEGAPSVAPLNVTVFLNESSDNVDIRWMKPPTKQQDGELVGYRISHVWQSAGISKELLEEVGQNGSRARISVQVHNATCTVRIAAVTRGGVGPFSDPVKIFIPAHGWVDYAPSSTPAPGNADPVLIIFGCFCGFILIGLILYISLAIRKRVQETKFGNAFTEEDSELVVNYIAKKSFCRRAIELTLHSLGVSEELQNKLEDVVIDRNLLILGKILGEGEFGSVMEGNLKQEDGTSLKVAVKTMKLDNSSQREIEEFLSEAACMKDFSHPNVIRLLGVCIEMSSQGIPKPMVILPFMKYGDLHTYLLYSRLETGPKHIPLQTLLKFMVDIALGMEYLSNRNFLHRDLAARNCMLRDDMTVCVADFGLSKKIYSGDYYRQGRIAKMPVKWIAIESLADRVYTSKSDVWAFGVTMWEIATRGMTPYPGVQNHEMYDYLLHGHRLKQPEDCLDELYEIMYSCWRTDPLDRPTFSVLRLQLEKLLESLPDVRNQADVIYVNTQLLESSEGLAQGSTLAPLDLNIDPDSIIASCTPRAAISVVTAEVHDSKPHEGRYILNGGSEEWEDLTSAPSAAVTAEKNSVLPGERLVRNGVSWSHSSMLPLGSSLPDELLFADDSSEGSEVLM
- ASSAY_NOTES: phosphorylation enrichment, bacterial display (enrichment ratio); higher = better substrate or ligand; peptides without Tyr show the background;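 also: 11-residue human phosphosite peptides and single-mutation variants displayed on the E. coli surface, counted by deep sequencing, each peptide's frequency after selection divided by its frequency in the unselected input library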;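 also: frequency after pTyr selection over input frequency; kinase dosed for 20-30% of maximal phosphorylation in three min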
READOUT: phosphorylation enrichment

[[record]]
sequence_input = "VREIRCQGGNR [VWF_Y1570_Y1570C]"
readout = "phosphorylation enrichment"
readout_value = 0.406

[[record]]
sequence_input = "PLDGEYLTLQI [TP53_Y327_F328L]"
readout = "phosphorylation enrichment"
readout_value = 0.764

[[record]]
sequence_input = "RPPFTYATLIR [FOXP3_Y342]"
readout = "phosphorylation enrichment"
readout_value = 1.01

[[record]]
sequence_input = "APRKVYDTQDD [ZFPL1_Y215_R218Q]"
readout = "phosphorylation enrichment"
readout_value = 0.466

[[record]]
sequence_input = "CEETFYTMKVN [MASP2_Y401]"
readout = "phosphorylation enrichment"
readout_value = 0.529

[[record]]
sequence_input = "IGSHAYGDQFR [IDH1_Y135_R132S_YF]"
readout = "phosphorylation enrichment"
readout_value = 0.377

[[record]]
sequence_input = "SLAARYYNWVS [FLT4_Y1230]"
readout = "phosphorylation enrichment"
readout_value = 5.97

[[record]]
sequence_input = "YFRDGYMPRQY [GSS_Y270]"
readout = "phosphorylation enrichment"
readout_value = 0.418

[[record]]
sequence_input = "LLANAYIYDVQ [L1CAM_Y418_V421D]"
readout = "phosphorylation enrichment"
readout_value = 2.71

[[record]]
sequence_input = "LPKVSYVKAID [GLRA1_Y307]"
readout = "phosphorylation enrichment"
readout_value = 0.542

[[record]]
sequence_input = "ERNARYRTPKI [PTK2B_Y699]"
readout = "phosphorylation enrichment"
readout_value = 0.697

[[record]]
sequence_input = "SYNNKYGMVAQ [APOB_Y276_K273N]"
readout = "phosphorylation enrichment"
readout_value = 0.378

[[record]]
sequence_input = "TRSYKCLLLSM [NF1_Y491_Y491C]"
readout = "phosphorylation enrichment"
readout_value = 0.434

[[record]]
sequence_input = "QKMFDYLKEKK [RYR2_Y3780_L3778F]"
readout = "phosphorylation enrichment"
readout_value = 0.403

